# testMethodNotes: Metabolic stability in mouse liver microsomes assessed as parent compound remaining after 90 mins in presence of NADPH by HPLC analysis
# Type: ADME, microsome
# conditionDetails: read-out: Stability
measuredQuantity: remaining at 1.5 h (%)
Report the value in % with no unit label.

stdin: // remaining at 1.5 h lookup, key: COC(=O)[C@]1(C)CCC[C@]2(C)c3ccc(C(C)C)c(NC(=O)Cn4cc(-c5cccc(NC(=O)OC(C)(C)C)c5)nn4)c3CC[C@@H]12
stdout: 61.3

---

# testMethodNotes: Selectivity index, ratio of IC50 for human HL7702 cells to IC50 for human SMCC7721 cells
# Assay type: toxicity
# conditionDetails: HL7702 cells versus SMCC7721 cells, read-out: Ratio IC50
measuredQuantity: selectivity ratio
In your answer, state the number alone without any accompanying words.

stdin: // selectivity ratio lookup, key: COC(=O)[C@]1(C)CCC[C@]2(C)c3ccc(C(C)C)c(NC(=O)Cn4cc(-c5cccc(NC(=O)OC(C)(C)C)c5)nn4)c3CC[C@@H]12
stdout: 7.6

---

# testMethodNotes: Metabolic stability in dog liver microsomes assessed as parent compound remaining after 30 mins in presence of NADPH by HPLC analysis
# Assay type: ADME, Canis lupus familiaris, microsome
# conditionDetails: read-out: Stability
measuredQuantity: remaining at 0.5 h (%)
Report the value in % with no unit label.

stdin: // remaining at 0.5 h lookup, key: COC(=O)[C@]1(C)CCC[C@]2(C)c3ccc(C(C)C)c(NC(=O)Cn4cc(-c5cccc(NC(=O)OC(C)(C)C)c5)nn4)c3CC[C@@H]12
stdout: 77.3

---

# testMethodNotes: Selectivity index, ratio of IC50 for human HL7702 cells to IC50 for human U251 cells
# Format: toxicity
# conditionDetails: HL7702 cells versus U251 cells, read-out: Ratio IC50
measuredQuantity: selectivity ratio
In your answer, state the number alone without any accompanying words.

stdin: // selectivity ratio lookup, key: COC(=O)[C@]1(C)CCC[C@]2(C)c3ccc(C(C)C)c(NC(=O)Cn4cc(-c5cccc(NC(=O)OC(C)(C)C)c5)nn4)c3CC[C@@H]12
stdout: 4.5

---

# System: SK-OV-3
# testMethodNotes: Cytotoxicity against human SKOV3 cells assessed as reduction in cell viability after 72 hrs by MTT assay
# Assay type: functional, cell-based
# conditionDetails: SK-OV-3, 72 h
measuredQuantity: pIC50
Formally, pIC50 is defined as -log10 of the concentration c, with c in mol/L.

Example molecules with recorded pIC50:
{"molSmiles": "COC(=O)[C@]1(C)CCC[C@]2(C)c3ccc(C(C)C)c(NC(=O)Cn4cc(-c5ccc(-c6ccccc6)cc5)nn4)c3CC[C@@H]12", "pIC50": 4.80}
{"molSmiles": "COC(=O)[C@]1(C)CCC[C@]2(C)c3ccc(C(C)C)c(NC(=O)Cn4cc(-c5ccccc5OC)nn4)c3CC[C@@H]12", "pIC50": 5.85}
{"molSmiles": "COC(=O)[C@]1(C)CCC[C@]2(C)c3ccc(C(C)C)c(NC(=O)Cn4cc(-c5ccc(OC)cc5)nn4)c3CC[C@@H]12", "pIC50": 5.85}

stdin: // pIC50 lookup, key: COC(=O)c1nnn(CC(=O)Nc2c(C(C)C)ccc3c2CC[C@H]2[C@](C)(C(=O)OC)CCC[C@]32C)c1C(=O)OC
stdout: 4.60

stdin: // pIC50 lookup, key: COC(=O)[C@]1(C)CCC[C@]2(C)c3ccc(C(C)C)c(NC(=O)Cn4cc(-c5cccc(NC(=O)OC(C)(C)C)c5)nn4)c3CC[C@@H]12
stdout: 5.92

stdin: // pIC50 lookup, key: CCOC(=O)c1cn(CC(=O)Nc2c(C(C)C)ccc3c2CC[C@H]2[C@](C)(C(=O)OC)CCC[C@]32C)nn1
stdout: 4.64
